Data provenance is PubChem BioAssay (NCI).

Test system: T-47D breast
assay-notes: NCI-60 one-dose screen, 48 h (100 = growth as untreated, 0 = no growth, -100 = all killed)
condition-description: 10 µM unless noted
Compounds without any hit were thinned out: in the full panel of roughly 83,000, 20% have a hit.
property: growth (%)

molecule	property	value-units	reported-value
C#CC(F)(F)[C@]1(O)CCC2C3CCC4=CC(=O)CCC4=C3[C@@H](c3ccc(N(C)C)cc3)C[C@@]21C (stereo partly specified)	growth	%	44
COc1ccc(-c2csc(NC(=O)CSc3nc(C)cc(=O)[nH]3)n2)cc1	growth	%	89.2
CC(=O)O[C@H]1CC[C@@]2(C)C(=CC[C@@H]3[C@@H]2CC[C@]2(C)C(Cl)=C(c4nc5ccc(Cl)cn5c4NC(C)(C)C)C[C@@H]32)C1	growth	%	94.4
Cc1[nH]c(C2CC(c3ccc(C(F)(F)F)c(F)c3)=NN2C)c(C)c1C(=O)NCC(F)(F)F (stereo unspecified)	growth	%	93.9
COc1ccc(N2C(=O)/C(=C/C(Cl)=C/c3ccc([N+](=O)[O-])cc3)SC2=S)cc1	growth	%	-14.9
COc1c(O[C@@H]2OC(CO)[C@H](O)[C@H](O)C2O)cc2oc3cc(O)c(CC=C(C)C)c(O)c3c(=O)c2c1CC=C(C)C (stereo partly specified)	growth	%	70.8
N#Cc1c(-c2ccc(Cl)cc2)nc(NN=Cc2cccc(Cl)c2)nc1N1CCOCC1	growth	%	76.6
CCOC(=O)CCC(=O)P(=O)(O)O	growth	%	98.6
N#C/C(=N\Nc1ccccc1)C(=O)Nc1cc(-c2ccccc2)nn1-c1ccccc1	growth	%	9.7
C=CC(=O)Nc1ccc2ncnc(Nc3cccc(NS(=O)(=O)CCC)c3Cl)c2c1	growth	%	24.5
COc1ccc(-c2ccc(-c3ccc(C(=N)N)nc3)s2)cc1	growth	%	-31.1
C#CCOc1cccc(Nc2ncnc3c(NC(=O)CCl)cccc23)c1	growth	%	-31.4
N#C/C(Sc1nc2sc3c(c2c(=O)n1Cc1ccccc1)CCCC3)=C1/SC=C(c2ccc(Cl)cc2)N1c1ccccc1	growth	%	91.5
COc1cc2c(c(OC)c1OC)CCC(c1cccc(NC(=O)c3cccc(Cl)c3)c1)O2 (stereo unspecified)	growth	%	59.1
Cc1cc(N2CCOCC2)nc(N(CCCNc2ccnc3cc(Cl)ccc23)Cc2ccc3c(c2)OCO3)n1	growth	%	-45.9
Cn1cc(-c2ccc3c(Nc4cccc(NC(=O)Nc5cccc(F)c5)c4)ncnc3c2)cn1	growth	%	21.5
C(CCCSC1=NCCN1)CCSC1=NCCN1	growth	%	101
CCCCC1=C(Br)C(=O)c2ncccc2C1=O	growth	%	71.2
Cc1ccc(NC(=O)c2ccc(Nc3ncnc4c3cnn4-c3cccc(F)c3)cc2)cc1	growth	%	92.6
COc1cccc(C2C(C#N)=C(N)Oc3c2ccc2ccccc32)c1 (stereo unspecified)	growth	%	69.5
O=C(N/N=C/c1ccccc1Cl)c1ccccc1Nc1ccnc(C(F)(F)F)c1	growth	%	-14.3
COc1cc2c(cc1OC)CC[N+](CCC[N+](C)(C)C)=C2	growth	%	103
Cc1nc2ccccc2c(/C=C/c2ccc(Cl)cc2)c1C(=O)/C=C/c1ccccc1	growth	%	9.61
C#CC#CC#CC#CC#CC#CC#CC#CC[C@@H]1OC[C@H](COC(=O)O[C@@H](C(=O)O[C@H]2C[C@@]3(O)[C@@H](OC(=O)c4ccccc4)[C@@H]4[C@]5(OC(C)=O)CO[C@@H]5C[C@H](O)[C@@]4(C)C(=O)[C@H](OC(C)=O)C(=C2C)C3(C)C)[C@@H](NC(=O)c2ccccc2)c2ccccc2)O1	growth	%	39.1
N#CSCc1cc(Cl)c(CSC#N)cc1Cl	growth	%	90
COc1cc2c(c(OC)c1OC)CCC(c1cccc(C(=O)Nc3ccc([N+](=O)[O-])cc3)c1)O2 (stereo unspecified)	growth	%	9.09
Cc1cc([N+](=O)[O-])ccc1NC(=O)c1ccc2c(c1)nc(-c1ccccc1)n2C1CCCCC1	growth	%	59.8
CSc1nn2c(-c3cc4cc(Br)ccc4oc3=O)ccnc2c1C#N	growth	%	99.7
O=C1/C(=C/c2ccc(-c3ccc(Cl)cc3)o2)SC(=S)N1CCc1ccc(O)cc1	growth	%	43.9
CC(=O)Oc1ccccc1C(=O)N(Cc1ccc2c(Cl)cc(Cl)c(O)c2n1)c1ccccc1	growth	%	40.7
Cc1ccc(C(=O)Nc2ccc(CN3CCN(C)CC3)c(C(F)(F)F)c2)cc1C#Cc1cnc(N)c2ccccc12	growth	%	30.5
O=S(=O)(Nc1ccc(Br)cc1)c1ccc(-c2cnc(C3CC3)o2)cc1	growth	%	18.6
[2H]C([2H])([2H])Oc1ccc(/C=C/C(=O)/C=C(O)/C=C/c2ccc(OC([2H])([2H])[2H])c(OC([2H])([2H])[2H])c2)cc1OC([2H])([2H])[2H]	growth	%	21.8
CCCCCCC/C=N/NC(=O)c1ccc(-n2cc(-c3ccccc3)nn2)cc1	growth	%	95.4
COc1ccc(C(=O)C2OC3=C(C(=O)CC(C)(C)C3)C2c2cccc(Oc3ccccc3)c2)cc1 (stereo unspecified)	growth	%	76
O=C(NC1CCCCCC1)c1ccc2c(=O)n3c(nc2c1)CCCCC3	growth	%	100

---

System: CCRF-CEM leukemia
assay-notes: NCI-60 one-dose screen, 48 h
condition-description: 10 µM unless noted
The panel holds about 83,000 compounds, 20% with a hit somewhere; the sample as a whole holds those more often. Activity calls are given as the source filed them. Rule for the calls: active = growth percent below 10; inactive = the rest.
Possible outcomes: TRUE (active), FALSE (inactive)

substance-smiles	study-system	assigned-label
COc1cc(/C=N/NC(=O)c2ccc3nc(-c4ccc(Cl)cc4)[nH]c3c2)cc(OC)c1OC	CCRF-CEM leukemia	FALSE
N#Cc1nn(-c2ccccn2)c(N)c1C#N	CCRF-CEM leukemia	FALSE
CS(=O)(=O)Nc1cc(-c2ccc3ncnc(Nc4cccc(Cl)c4)c3c2)cnc1Cl	CCRF-CEM leukemia	FALSE
COc1ccc(/C=C/C(=O)c2ccc(-n3cc(CN4CCN(c5cc6c(cc5F)c(=O)c(C(=O)O)cn6C5CC5)CC4)nn3)cc2)cc1	CCRF-CEM leukemia	FALSE
Cc1ccc(S(=O)(=O)N(CCC(=O)O)c2ccccc2)cc1	CCRF-CEM leukemia	FALSE
C=CC(=O)Nc1ccc2ncnc(Nc3cccc(NS(=O)(=O)CCC)c3Cl)c2c1	CCRF-CEM leukemia	FALSE
CN(C)c1ccc(/C=N/NC(=O)CSc2nc3sc4c(c3c(=O)n2-c2ccccc2)CCCCC4)cc1	CCRF-CEM leukemia	FALSE
COc1cc(/C=C/C(=O)c2ccc(-n3cc(CN4CCN(c5cc6c(cc5F)c(=O)c(C(=O)O)cn6C5CC5)CC4)nn3)cc2)cc(OC)c1OC	CCRF-CEM leukemia	FALSE
Cn1cc(-c2ccc3c(Nc4cccc(NC(=O)Nc5cccc(F)c5)c4)ncnc3c2)cn1	CCRF-CEM leukemia	TRUE
CCCCCCCCNC(=O)[C@@H](N)CSCOC(C)=O	CCRF-CEM leukemia	FALSE

---

Test system: DU-145 prostate
assay-notes: NCI-60 one-dose screen, 48 h (100 = growth as untreated, 0 = no growth, -100 = all killed)
condition-description: 10 µM unless noted
The panel holds about 83,000 compounds, 20% with a hit somewhere; the sample as a whole holds those more often. Calls of active or inactive are those of the source. How the source made its calls: active means growth percent below 10; inactive means the rest.

compound	study-system	growth
COC(=O)c1cc(-c2cc(OC)c(OC)c(OC)c2)[nH]c1N/N=C/c1c(Cl)cccc1Cl	DU-145 prostate	45.6% (inactive)
CC(=O)Cc1nsc(NC(=O)c2cc(-c3cc(Cl)ccc3Cl)oc2C)n1	DU-145 prostate	110% (inactive)
Cc1cc2c(c(C)n1)CN(C(=O)Nc1nc(-c3cncs3)ccc1N)C2	DU-145 prostate	107% (inactive)
C[C@H]1c2ccccc2CN1CCCOc1cc2c(cc1OCC1CC1)C1(CCCC1)C(N)=N2	DU-145 prostate	75.6% (inactive)
COc1ccccc1/C=C/C1=C(C)CCC(c2ccccc2OC)C1C (stereo not given)	DU-145 prostate	-8.51% (active)
COc1cc(/C=N/NC(=O)c2ccc3nc(-c4ccc(Cl)cc4)[nH]c3c2)cc(OC)c1OC	DU-145 prostate	97.4% (inactive)
Cn1cc(-c2csc(-c3cn(C)c4ccc(F)cc34)n2)c2cnccc21	DU-145 prostate	-6.44% (active)
Cc1cccc(CN(Nc2ccccc2)c2ccccc2)n1	DU-145 prostate	107% (inactive)
C=C1C(=O)O[C@H]2[C@H]1CC/C(COC(=O)NCc1ccc(Cn3c(=O)sn(CCCC)c3=O)cc1)=C\CC[C@@]1(C)O[C@@H]21	DU-145 prostate	20.2% (inactive)
C=C(C)[C@@H]1CC[C@]2(C#N)CC[C@]3(C)[C@H](CC[C@@H]4[C@@]5(C)CCCNC(C)(C)[C@@H]5CC[C@]43C)[C@@H]12	DU-145 prostate	65.5% (inactive)
CN(C)C(=O)OCc1ccc2c(Cl)cc(Cl)c(O)c2n1	DU-145 prostate	39.7% (inactive)
C#CCOc1ccc(C2=NN(C)C3N=C(Cl)c4ncn(C)c4N23)cc1OCC#C (stereo not given)	DU-145 prostate	104% (inactive)
COC(=O)c1c(C)nc(C)c2c1C(=O)C(Br)=C(NCCCCO)C2=O	DU-145 prostate	79.6% (inactive)
CCCCC/C=C/CCC(=O)N[C@H]1[C@H](Oc2c3cc4cc2Oc2ccc(cc2Cl)[C@@H](O[C@@H]2O[C@H](CO)[C@@H](O)[C@H](O)[C@H]2NC(C)=O)[C@@H]2NC(=O)[C@H](NC(=O)[C@@H]4NC(=O)[C@H]4NC(=O)[C@@H](Cc5ccc(c(Cl)c5)O3)NC(=O)[C@@H](N)c3ccc(O)c(c3)Oc3cc(O)cc4c3)c3ccc(O)c(c3)-c3c(O[C@H]4O[C@H](CO)[C@@H](O)[C@H](O)[C@@H]4O)cc(O)cc3[C@H](C(=O)O)NC2=O)O[C@H](CO)[C@H](O)[C@@H]1O	DU-145 prostate	112% (inactive)
O=S(=O)(c1ccc(NCSc2nc3ccccc3s2)cc1)c1ccc(NCSc2nc3ccccc3s2)cc1	DU-145 prostate	106% (inactive)
